target: LRRK2 G2019S (Homo sapiens, UniProt Q5S007, G2019S); experiment: LRRK2 Kinase Activity Assay (LanthaScreen TR-FRET), G2019S; conditions: recombinant G2019S-LRRK2, 25 μM ATP, 400 nM LRRKtide, 60 min; class symbols
Sequence (Q5S007 whole entry G2019S): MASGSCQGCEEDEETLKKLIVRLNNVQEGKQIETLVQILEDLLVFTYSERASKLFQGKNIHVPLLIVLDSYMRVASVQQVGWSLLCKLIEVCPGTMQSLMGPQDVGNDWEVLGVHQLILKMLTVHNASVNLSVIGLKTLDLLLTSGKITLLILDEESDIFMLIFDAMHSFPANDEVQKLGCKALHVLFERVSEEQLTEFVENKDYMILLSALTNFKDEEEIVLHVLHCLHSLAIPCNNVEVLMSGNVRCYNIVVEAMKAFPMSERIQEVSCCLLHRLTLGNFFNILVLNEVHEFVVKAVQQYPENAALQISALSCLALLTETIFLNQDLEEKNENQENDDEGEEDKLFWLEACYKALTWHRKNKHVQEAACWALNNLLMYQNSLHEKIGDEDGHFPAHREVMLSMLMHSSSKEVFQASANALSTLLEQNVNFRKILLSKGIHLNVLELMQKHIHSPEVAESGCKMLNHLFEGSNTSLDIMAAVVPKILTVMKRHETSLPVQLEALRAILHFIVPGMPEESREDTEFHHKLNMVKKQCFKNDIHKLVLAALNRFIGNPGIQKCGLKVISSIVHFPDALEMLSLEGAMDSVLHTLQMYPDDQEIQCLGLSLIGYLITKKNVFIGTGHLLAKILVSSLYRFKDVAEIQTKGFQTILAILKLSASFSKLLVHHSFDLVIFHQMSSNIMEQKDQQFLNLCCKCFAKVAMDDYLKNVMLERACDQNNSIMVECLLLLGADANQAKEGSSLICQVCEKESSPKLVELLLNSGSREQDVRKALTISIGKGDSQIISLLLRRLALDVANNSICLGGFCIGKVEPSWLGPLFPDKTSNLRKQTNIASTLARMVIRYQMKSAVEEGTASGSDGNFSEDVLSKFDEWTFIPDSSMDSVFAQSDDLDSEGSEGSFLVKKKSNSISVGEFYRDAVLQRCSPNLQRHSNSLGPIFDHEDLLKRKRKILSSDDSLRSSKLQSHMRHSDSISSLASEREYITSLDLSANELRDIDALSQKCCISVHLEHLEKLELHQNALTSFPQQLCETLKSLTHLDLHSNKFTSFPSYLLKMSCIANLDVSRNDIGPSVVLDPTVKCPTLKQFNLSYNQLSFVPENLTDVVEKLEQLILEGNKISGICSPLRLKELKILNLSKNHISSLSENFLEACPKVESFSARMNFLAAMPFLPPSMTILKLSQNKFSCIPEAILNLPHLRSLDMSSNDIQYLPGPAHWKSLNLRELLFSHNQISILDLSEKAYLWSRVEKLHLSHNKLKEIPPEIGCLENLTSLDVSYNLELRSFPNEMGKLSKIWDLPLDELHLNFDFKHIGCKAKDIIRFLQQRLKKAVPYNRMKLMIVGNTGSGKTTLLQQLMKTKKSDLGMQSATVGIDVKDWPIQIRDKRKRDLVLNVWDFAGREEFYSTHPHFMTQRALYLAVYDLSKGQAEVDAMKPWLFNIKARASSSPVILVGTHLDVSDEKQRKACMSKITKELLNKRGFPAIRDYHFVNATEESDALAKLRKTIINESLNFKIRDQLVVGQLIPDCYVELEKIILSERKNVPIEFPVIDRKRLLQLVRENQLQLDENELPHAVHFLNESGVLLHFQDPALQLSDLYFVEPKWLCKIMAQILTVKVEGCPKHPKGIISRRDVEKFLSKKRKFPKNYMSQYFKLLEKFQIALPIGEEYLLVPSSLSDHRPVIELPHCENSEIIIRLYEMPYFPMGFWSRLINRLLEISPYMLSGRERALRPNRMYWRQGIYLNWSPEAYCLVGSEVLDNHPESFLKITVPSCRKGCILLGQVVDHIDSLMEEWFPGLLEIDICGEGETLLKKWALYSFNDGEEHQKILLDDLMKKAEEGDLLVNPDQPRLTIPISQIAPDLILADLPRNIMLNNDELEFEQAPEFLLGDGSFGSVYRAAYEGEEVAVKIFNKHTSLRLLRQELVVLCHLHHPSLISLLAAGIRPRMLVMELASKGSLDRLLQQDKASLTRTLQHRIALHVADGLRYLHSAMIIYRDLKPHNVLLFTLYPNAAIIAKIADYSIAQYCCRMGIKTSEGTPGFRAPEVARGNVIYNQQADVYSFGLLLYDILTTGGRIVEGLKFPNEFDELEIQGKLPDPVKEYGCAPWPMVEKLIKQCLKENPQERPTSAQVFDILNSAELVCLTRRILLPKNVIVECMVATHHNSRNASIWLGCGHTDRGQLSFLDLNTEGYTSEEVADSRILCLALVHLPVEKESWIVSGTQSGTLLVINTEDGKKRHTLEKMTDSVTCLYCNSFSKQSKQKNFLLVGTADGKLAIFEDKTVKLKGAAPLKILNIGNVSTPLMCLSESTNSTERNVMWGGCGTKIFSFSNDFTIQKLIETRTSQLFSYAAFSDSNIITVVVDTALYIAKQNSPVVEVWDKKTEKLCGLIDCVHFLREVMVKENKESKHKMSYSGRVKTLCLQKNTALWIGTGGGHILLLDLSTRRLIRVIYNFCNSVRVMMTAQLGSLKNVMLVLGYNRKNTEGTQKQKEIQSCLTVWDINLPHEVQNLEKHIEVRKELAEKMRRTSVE
pIC50: −log10 of the molar value.
outcome measure: pIC50

Worked cases, pIC50 given:
N#Cc1ccc2c(c1F)CC[C@H]2Nc1ccc2[nH]nc(-c3cnn(C(F)F)c3)c2c1 (single isomer, unassigned) [Example 53, enantiomer 1] :: > 7.00
N#Cc1ccc2c(c1)CCC[C@@H]2Oc1ccc2[nH]nc(-c3cnoc3)c2c1 (single isomer, unassigned) [Example 17, enantiomer 1] :: > 7.00
N#Cc1ccc2c(c1)CCC[C@@H]2Nc1ccc2[nH]nc(-c3ccc(C(=O)O)cc3)c2c1 (single isomer, unassigned) :: > 7.00
N#Cc1ccc2c(c1)C1(CC1)C[C@@H]2Nc1ccc2[nH]nc(-c3cnco3)c2c1 (single isomer, unassigned) [Example 140, enantiomer 1] :: > 7.00
N#Cc1ccc2c(n1)CCC[C@H]2Oc1ccc2[nH]nc(C3CC3)c2c1 (single isomer, unassigned) [Example 133, enantiomer 2] :: > 7.00
COc1n[nH]c2ccc(O[C@H]3CCc4cc(C#N)c(Br)nc43)cc12 (single isomer, unassigned) [187, enantiomer 1] :: > 7.00
Cc1cc2c(cc1C#N)CC[C@@H]2Nc1ccc2[nH]nc(-c3cnco3)c2c1 (single isomer, unassigned) [Example 28, enantiomer 1] :: > 7.00

# context switch: different molecule, same pIC50
Value of measured pIC50 for the entry Cc1n[nH]c2ccc(N[C@H]3CCCc4cc(C#N)ccc43)cc12 (single isomer, unassigned) [Example 43, enantiomer 1] : > 7.00

* * *

target: LRRK2 G2019S (Homo sapiens, UniProt Q5S007, G2019S); assay: LRRK2 Kinase Activity Assay (LanthaScreen TR-FRET), G2019S; settings: recombinant G2019S-LRRK2, 25 μM ATP, 400 nM LRRKtide, 60 min; class symbols
Provide the reported IC50 of each item.

# map each molecule to its IC50
1. COc1n[nH]c2ccc(O[C@H]3CCc4cc(C#N)c(Cl)cc43)cc12 (single isomer, unassigned) [189, enantiomer 2]
2. N#Cc1cnc2c(c1)CCC[C@@H]2Oc1ccc2[nH]nc(C3CC3)c2c1 (single isomer, unassigned) [Example 136, enantiomer 2]
3. Cc1c(C#N)c(Cl)nc2c1CCC[C@@H]2Oc1ccc2[nH]nc(C3CC3)c2c1 (single isomer, unassigned) [184, enantiomer 1]

result:
["< 100 nM", "100 to 1000 nM", "< 100 nM"]

* * *

molecular target: LRRK2 WT (Homo sapiens); construct: purchased Life Technologies PR8604B; assay: LRRK2 Kinase Activity Assay (LanthaScreen TR-FRET), wild type; assay type: biochemical; settings: recombinant wild type LRRK2, 25 μM ATP, 400 nM LRRKtide, 60 min; class symbols
pIC50: −log10 of the molar value.
outcome measure: pIC50

Worked cases, pIC50 given:
CC1(C)C[C@H](Nc2ccc3[nH]nc(-c4cnco4)c3c2)c2ccc(C#N)cc21 (single isomer, unassigned) [Example 105, enantiomer 1] :: 6.00 to 7.00
N#Cc1ccc2c(c1)OCC[C@@H]2Nc1ccc2[nH]nc(I)c2c1 (single isomer, unassigned) [193, enantiomer 2] :: > 7.00
COc1ccc(-c2n[nH]c3ccc(N[C@H]4CCCc5cc(C#N)ccc54)cc23)cc1 (single isomer, unassigned) :: 6.00 to 7.00
N#Cc1ccc2c(c1)CCC[C@@H]2Nc1ccc2[nH]nc(CC3CC3)c2c1 (single isomer, unassigned) [Example 139, enantiomer 1] :: 5.00 to 6.00
Cc1c(C#N)ccc2c1CC[C@@H]2Oc1ccc2[nH]nc(-c3cnn(C(F)F)c3)c2c1 (single isomer, unassigned) [Example 50, enantiomer 1] :: > 7.00
N#Cc1cccc2c1[C@@H](Oc1ccc3[nH]nc(-c4cnco4)c3c1)CC2 (single isomer, unassigned) [Example 37, enantiomer 2] :: > 7.00
Cc1c(C#N)ccc2c1CC[C@@H]2Nc1ccc2[nH]nc(I)c2c1 (single isomer, unassigned) [Example 127, enantiomer 2] :: 6.00 to 7.00
N#Cc1ccc2c(c1)OCC[C@@H]2Nc1ccc2[nH]nc(-c3cnoc3)c2c1 (single isomer, unassigned) [192, enantiomer 1] :: 6.00 to 7.00

# map each compound to its pIC50
1. Cc1c(C#N)cnc2c1CCC[C@@H]2Nc1ccc2[nH]nc(-c3cnco3)c2c1 (single isomer, unassigned) [Example 150, enantiomer 2]
2. N#Cc1ccc2c(c1)CCC[C@H]2Oc1cc2c(-c3cnco3)n[nH]c2cn1 (single isomer, unassigned) [Example 32, enantiomer 1]
3. Cc1c(C#N)c(Cl)nc2c1CCC[C@@H]2Oc1ccc2[nH]nc(C3CC3)c2c1 (single isomer, unassigned) [184, enantiomer 2]
4. COc1n[nH]c2ccc(O[C@H]3CCc4cc(C#N)c(Cl)nc43)cc12 (single isomer, unassigned) [185, enantiomer 2]

result:
1: > 7.00; 2: 5.00 to 6.00; 3: 5.00 to 6.00; 4: 5.00 to 6.00

* * *

biological target: LRRK2 WT (Homo sapiens); construct: purchased Life Technologies PR8604B; assay: LRRK2 Kinase Activity Assay (LanthaScreen TR-FRET), wild type; format: biochemical; conditions: recombinant wild type LRRK2, 25 μM ATP, 400 nM LRRKtide, 60 min; class symbols
pIC50: −log10 of the molar value.
Provide the reported pIC50 of each item.

Worked cases, pIC50 given:
N#Cc1cc2c(nc1Cl)[C@@H](Oc1ccc3[nH]nc(-c4cnco4)c3c1)CCC2 (single isomer, unassigned) [177, enantiomer 2] :: > 7.00
C[C@@H]1CCc2cc(C#N)ccc2[C@H]1Nc1ccc2[nH]nc(-c3cnco3)c2c1 (single isomer, unassigned) [Example 174, enantiomer 2] :: 6.00 to 7.00

# context switch: different compound, same pIC50
Hey, LRRK2 WT (Homo sapiens) data for N#Cc1ccc2c(c1)CCC[C@@H]2Nc1cc2c(-c3cnco3)n[nH]c2cn1 (single isomer, unassigned) [Example 33, enantiomer 2] : pIC50 came out at 6.00 to 7.00

* * *

target: LRRK2 G2019S (Homo sapiens, UniProt Q5S007, G2019S); test: LRRK2 Kinase Activity Assay (LanthaScreen TR-FRET), G2019S; details: recombinant G2019S-LRRK2, 25 μM ATP, 400 nM LRRKtide, 60 min; class symbols
Provide the reported IC50 of each item.

Worked cases, IC50 given:
COc1nc2c(cc1C#N)CCC[C@@H]2Nc1ccc2[nH]nc(-c3cnco3)c2c1 (single isomer, unassigned) [Example 102, enantiomer 1] :: < 100 nM
N#Cc1ccc2c(c1)CC[C@@H]2Oc1cc2c(-c3cnco3)n[nH]c2cn1 (single isomer, unassigned) [Example 20, enantiomer 2] :: < 100 nM

# map each molecule to its IC50
1. Cc1cc(C#N)cc2c1[C@@H](Nc1ccc3[nH]nc(-c4cnco4)c3c1)CC2 (single isomer, unassigned) [Example 131, enantiomer 1]
2. N#Cc1cnc2c(c1Cl)CCC[C@@H]2Nc1ccc2[nH]nc(-c3cnco3)c2c1 (single isomer, unassigned) [Example 144, enantiomer 2]
3. N#Cc1cnc2c(c1)CCC[C@@H]2Nc1ccc2[nH]nc(-c3cnoc3)c2c1 (single isomer, unassigned) [Example 7, enantiomer 1]
4. N#Cc1ccc2c(c1)CCCC2Oc1ccc2[nH]nc(C(F)(F)F)c2c1 (single isomer, unassigned) [Example 152, enantiomer 1]
5. Cc1c(C#N)ccc2c1CC[C@@H]2Nc1ccc2[nH]nc(-c3cnco3)c2c1 (single isomer, unassigned) [Example 27, enantiomer 1]
6. N#Cc1ccc2c(c1)CCC[C@@H]2Nc1ccc2[nH]nc(C3=CCC4(CC3)OCCO4)c2c1 (single isomer, unassigned) [Example 87]
7. N#Cc1ccc(-c2n[nH]c3ccc(N[C@H]4CCCc5cc(C#N)ccc54)cc23)cc1 (single isomer, unassigned) [Example 63]

result:
1: < 100 nM; 2: < 100 nM; 3: 100 to 1000 nM; 4: 1000 to 10000 nM; 5: < 100 nM; 6: 100 to 1000 nM; 7: < 100 nM

# map each molecule to its IC50
1. N#Cc1nc2c(o1)CCC2Nc1ccc2[nH]nc(-c3cnco3)c2c1 (single isomer, unassigned) [Example 36, enantiomer 2]
2. Cc1c(C#N)cnc2c1CCC[C@@H]2Nc1ccc2[nH]nc(-c3cnco3)c2c1 (single isomer, unassigned) [Example 150, enantiomer 1]
3. N#Cc1ccc2c(c1)CC[C@H]2Nc1ccc2[nH]nc(-c3cnco3)c2n1 (single isomer, unassigned) [Example 30, enantiomer 1]

result:
1: < 100 nM; 2: 100 to 1000 nM; 3: < 100 nM

* * *

molecular target: LRRK2 WT (Homo sapiens, UniProt Q5S007); construct: purchased Life Technologies PR8604B; experiment: LRRK2 Kinase Activity Assay (LanthaScreen TR-FRET), wild type; format: biochemical; conditions: recombinant wild type LRRK2, 25 μM ATP, 400 nM LRRKtide, 60 min; class symbols
Sequence (Q5S007 whole entry): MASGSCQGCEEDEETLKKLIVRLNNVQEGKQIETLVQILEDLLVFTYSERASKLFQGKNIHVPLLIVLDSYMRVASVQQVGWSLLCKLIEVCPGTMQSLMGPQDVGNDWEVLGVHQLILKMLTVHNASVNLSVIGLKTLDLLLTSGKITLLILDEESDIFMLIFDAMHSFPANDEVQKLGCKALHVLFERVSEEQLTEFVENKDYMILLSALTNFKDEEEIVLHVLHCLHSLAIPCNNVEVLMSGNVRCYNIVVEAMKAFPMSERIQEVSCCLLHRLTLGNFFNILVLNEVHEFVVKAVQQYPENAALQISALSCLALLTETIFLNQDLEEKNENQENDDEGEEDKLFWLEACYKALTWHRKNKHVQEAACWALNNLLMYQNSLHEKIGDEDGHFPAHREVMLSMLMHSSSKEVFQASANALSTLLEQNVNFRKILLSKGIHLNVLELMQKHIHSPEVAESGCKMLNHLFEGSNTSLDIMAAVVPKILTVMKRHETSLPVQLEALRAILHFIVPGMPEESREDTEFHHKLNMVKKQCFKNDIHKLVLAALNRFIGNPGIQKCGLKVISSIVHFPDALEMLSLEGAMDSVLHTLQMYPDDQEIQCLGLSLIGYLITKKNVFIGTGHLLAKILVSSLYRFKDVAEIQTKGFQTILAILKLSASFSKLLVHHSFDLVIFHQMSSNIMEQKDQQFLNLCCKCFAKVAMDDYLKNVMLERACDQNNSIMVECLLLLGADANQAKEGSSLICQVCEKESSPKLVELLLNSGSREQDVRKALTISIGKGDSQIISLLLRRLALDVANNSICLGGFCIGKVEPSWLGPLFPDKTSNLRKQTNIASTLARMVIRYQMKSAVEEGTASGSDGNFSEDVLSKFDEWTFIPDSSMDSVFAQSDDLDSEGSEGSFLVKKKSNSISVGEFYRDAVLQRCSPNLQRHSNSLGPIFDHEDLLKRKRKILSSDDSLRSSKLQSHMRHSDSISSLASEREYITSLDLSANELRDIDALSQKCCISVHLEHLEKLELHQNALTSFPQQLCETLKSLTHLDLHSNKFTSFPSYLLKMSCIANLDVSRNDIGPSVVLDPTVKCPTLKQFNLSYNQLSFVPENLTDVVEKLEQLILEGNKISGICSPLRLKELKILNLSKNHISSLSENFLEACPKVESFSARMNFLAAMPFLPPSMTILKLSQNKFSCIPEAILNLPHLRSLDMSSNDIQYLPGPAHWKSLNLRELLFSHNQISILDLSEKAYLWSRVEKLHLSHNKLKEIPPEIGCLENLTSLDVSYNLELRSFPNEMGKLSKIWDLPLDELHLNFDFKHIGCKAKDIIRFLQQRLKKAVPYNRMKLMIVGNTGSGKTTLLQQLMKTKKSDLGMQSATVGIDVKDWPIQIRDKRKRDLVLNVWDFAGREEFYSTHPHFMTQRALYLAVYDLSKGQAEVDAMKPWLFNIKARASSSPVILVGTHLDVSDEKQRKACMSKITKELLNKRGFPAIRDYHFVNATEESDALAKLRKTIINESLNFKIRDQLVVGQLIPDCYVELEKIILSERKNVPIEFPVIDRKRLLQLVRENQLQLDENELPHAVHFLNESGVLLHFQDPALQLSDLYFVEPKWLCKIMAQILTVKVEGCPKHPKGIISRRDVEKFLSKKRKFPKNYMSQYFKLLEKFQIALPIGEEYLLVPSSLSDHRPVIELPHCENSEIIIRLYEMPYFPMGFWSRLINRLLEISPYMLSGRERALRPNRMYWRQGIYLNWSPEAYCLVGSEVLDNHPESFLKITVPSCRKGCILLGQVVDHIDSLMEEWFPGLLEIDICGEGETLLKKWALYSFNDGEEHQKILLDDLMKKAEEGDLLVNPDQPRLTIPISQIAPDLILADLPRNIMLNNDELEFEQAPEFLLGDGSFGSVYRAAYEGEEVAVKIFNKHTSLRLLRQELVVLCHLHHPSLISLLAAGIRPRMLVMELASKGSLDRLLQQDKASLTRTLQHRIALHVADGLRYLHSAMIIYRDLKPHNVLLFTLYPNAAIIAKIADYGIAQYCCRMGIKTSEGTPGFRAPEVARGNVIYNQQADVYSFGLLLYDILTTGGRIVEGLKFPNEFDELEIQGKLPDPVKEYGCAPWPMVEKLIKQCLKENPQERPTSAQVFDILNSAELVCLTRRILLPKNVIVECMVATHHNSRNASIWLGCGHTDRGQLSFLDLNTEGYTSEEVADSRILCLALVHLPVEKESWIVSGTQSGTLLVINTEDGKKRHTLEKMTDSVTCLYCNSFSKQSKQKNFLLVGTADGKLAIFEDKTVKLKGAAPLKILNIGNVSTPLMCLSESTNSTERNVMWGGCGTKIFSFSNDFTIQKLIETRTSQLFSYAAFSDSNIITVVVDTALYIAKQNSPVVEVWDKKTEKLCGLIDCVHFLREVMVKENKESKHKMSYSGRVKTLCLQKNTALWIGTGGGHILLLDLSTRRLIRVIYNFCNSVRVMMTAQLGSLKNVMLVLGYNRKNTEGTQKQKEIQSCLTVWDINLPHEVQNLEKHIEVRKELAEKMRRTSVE
pIC50: −log10 of the molar value.
outcome measure: pIC50

Worked cases, pIC50 given:
Cc1nc2c(cc1C#N)CCC[C@@H]2Nc1ccc2[nH]nc(-c3cnco3)c2c1 (single isomer, unassigned) [Example 106, enantiomer 2] :: > 7.00
N#Cc1cc2c(nn1)[C@@H](Oc1ccc3[nH]nc(-c4cnco4)c3c1)CC2 (single isomer, unassigned) [Example 41, enantiomer 1] :: > 7.00

Value of measured pIC50 for the entry Cc1nc2c(c(C)c1C#N)CC[C@@H]2Nc1ccc2[nH]nc(-c3cnco3)c2c1 (single isomer, unassigned) [Example 170, enantiomer 1] : > 7.00
